Examples of binders with documented MCR3 EC50 (nM); cAMP production, LANCE cAMP assay, CHO-MCR3 cells, cell pool C follow.
- measurement-target: MCR3 (human, UniProt P41968 1-323)
- Sequence (P41968 whole entry): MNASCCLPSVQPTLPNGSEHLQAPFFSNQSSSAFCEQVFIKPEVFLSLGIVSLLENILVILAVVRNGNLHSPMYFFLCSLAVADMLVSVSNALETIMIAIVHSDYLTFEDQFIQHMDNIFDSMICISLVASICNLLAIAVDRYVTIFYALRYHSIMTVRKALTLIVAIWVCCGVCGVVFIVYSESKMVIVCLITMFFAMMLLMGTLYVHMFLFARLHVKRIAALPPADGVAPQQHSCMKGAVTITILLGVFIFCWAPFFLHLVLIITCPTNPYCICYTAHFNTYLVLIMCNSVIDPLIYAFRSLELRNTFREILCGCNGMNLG
- method: cell-based or functional assay
Square brackets hold non-standard residues; d marks the D form. Ends that are not written are not given here. Nle = CCCC[C@H](N)C(=O)O
endpoint: MCR3 EC50 (nM); cAMP production, LANCE cAMP assay, CHO-MCR3 cells, cell pool C

>  <binder>
SYSMEHFRWGKPVGAARRPVKVYPGGGSSYS[Nle]EH[dF]RWGKPV (ends and bridges not checked) [ACTH1-24-point-1-2-4aa-NDP-α-MSH]

>  <value>
0.42

$$$$
>  <binder>
SYSMEHFRWGKPVGKKRRAVKVYPGGGGSGGGGSSYS[Nle]EH[dF]RWGKPV [ACTH1-24-point-5-10aa-NDP-α-MSH]

>  <value>
1

$$$$
>  <binder>
SYSMEHFRWGKPVGAARRPVKVYP [ACTH1-24-point-1-2]

>  <value>
10

$$$$
>  <binder>
SYSMEHFRWGKPVGAARRPVKVYPGGGGSGGSYS[Nle]EH[dF]RWGKPV (ends and bridges not checked) [ACTH1-24-point-1-2-7aa-NDP-α-MSH]

>  <value>
0.47

$$$$
>  <binder>
SYSMEHFRWGKPVGAARRPVKVYPSYS[Nle]EH[dF]RWGKPV (ends and bridges not checked) [ACTH1-24-point-1-2-NDP-α-MSH]

>  <value>
0.72

$$$$
>  <binder>
SYSMEHFRWGKPVGKKRRAVKVYP [ACTH1-24-point-5]

>  <value>
10

$$$$
>  <binder>
Ac-SYS[Nle]EH[dF]RWGKPVGGGGSGGGGSSYSMEHFRWGKPVGKKRRPVKVYP [NDP-α-MSH-linker-linker-ACTH1-24]

>  <value>
1.8

$$$$
>  <binder>
SYSMEHFRWGKPVGKKRRAVKVYPGGGSSYS[Nle]EH[dF]RWGKPV [ACTH1-24-point-5-4aa-NDP-α-MSH]

>  <value>
0.68

$$$$
>  <binder>
SYSMEHFRWGKPVGKKAAAVKVYPSYS[Nle]EH[dF]RWGKPV [ACTH1-24-point-3-5-NDP-α-MSH]

>  <value>
0.92

$$$$
>  <binder>
SYSMEHFRWGKPVGKKAAAVKVYPGGGGSGGGGSSYS[Nle]EH[dF]RWGKPV (ends and bridges not checked) [ACTH1-24-point-3-5-10aa-NDP-α-MSH]

>  <value>
1.1

$$$$
>  <binder>
SYSXEHXRWGKPVGKKRRPVKVYP (Nle and DPhe as printed: SYS-Nle-EH-DPhe-RWGKPVGKKRRPVKVYP) [NDP-ACTH]

>  <value>
0.21

$$$$
>  <binder>
SYSMEHFRWGKPVGKKAAAVKVYPGGGGSGGSYS[Nle]EH[dF]RWGKPV (ends and bridges not checked) [ACTH1-24-point-3-5-7aa-NDP-α-MSH]

>  <value>
0.72

$$$$
>  <binder>
SYSMEHFRWGKPVGKKRRAVKVYPGGGGSGGSYS[Nle]EH[dF]RWGKPV [ACTH1-24-point-5-7aa-NDP-α-MSH]

>  <value>
0.76

$$$$
>  <binder>
SYSMEHFRWGKPVGKKRRAVKVYPSYS[Nle]EH[dF]RWGKPV [ACTH1-24-point-5-NDP-α-MSH]

>  <value>
1.5

$$$$
>  <binder>
SYSMEHFRWGKPVGKKRRPVKVYPGGGGSGGSYS[Nle]EH[dF]RWGKPV (ends and bridges not checked) [ACTH1-24-7aa-NDP-α-MSH]

>  <value>
0.85

$$$$
